Source of measurements: patent US9604935B2

Below, each entry is listed with its recorded AUC(0-inf).
# Assay name: Pharmacokinetic evaluation in rats
# Assay type: in vivo
# Recorded conditions: male, Sprague-Dawley, rat, plasma, po, 3 mg/kg, 3 mg/kg by gavage, group G3, Mean of 4 rats, read-out: AUCINF_obs
# Experimental: 12 male Sprague-Dawley rats, 7-8 weeks old, of approximately 200 g body weight, were divided into three groups, four in each group. Rats were feed with standard feed, and were given water, and were started to fast 16 hours before the test. […] After blood sampling, the tube was gently inverted at least 5 times immediately to ensure adequate mixing, and was placed on ice. […] The concentration of the compound of the invention in plasma was determined with LC-MS/MS. […]
Quick reminder: number only, in ng·h/mL, skip the unit.

Answered examples (2):
[2H]C([2H])(C#N)NC(=O)c1ccc(-c2ccnc(Nc3ccc(N4C([2H])([2H])C([2H])([2H])OC([2H])([2H])C4([2H])[2H])cc3)n2)cc1	2790
N#CCNC(=O)c1ccc(-c2ccnc(Nc3ccc(N4CCOCC4)cc3)n2)cc1 [example 9, reference compound]	2240

// next item, AUC(0-inf) requested
I'd like to know its AUC(0-inf). The compound in question is [2H]C1([2H])OC([2H])([2H])C([2H])([2H])N(c2ccc(Nc3nccc(-c4ccc(C(=O)NCC#N)cc4)n3)cc2)C1([2H])[2H]
4060

* * *

# Assay name: Pharmacokinetic evaluation in rats
# Format: in vivo
# Recorded conditions: male, Sprague-Dawley, rat, plasma, po, 3 mg/kg, 3 mg/kg by gavage, group G3, rat 12
Test readout: Cmax (ng/mL)
Quick reminder: number only, in ng/mL, skip the unit.

[2H]C1([2H])OC([2H])([2H])C([2H])([2H])N(c2ccc(Nc3nccc(-c4ccc(C(=O)NCC#N)cc4)n3)cc2)C1([2H])[2H]	483

I'd like to know its Cmax. The compound in question is N#CCNC(=O)c1ccc(-c2ccnc(Nc3ccc(N4CCOCC4)cc3)n2)cc1 [example 9, reference compound]
270

I'd like to know its Cmax. The compound in question is [2H]C([2H])(C#N)NC(=O)c1ccc(-c2ccnc(Nc3ccc(N4C([2H])([2H])C([2H])([2H])OC([2H])([2H])C4([2H])[2H])cc3)n2)cc1
344

* * *

# Assay name: Pharmacokinetic evaluation in rats
# Format: in vivo
# Recorded conditions: male, Sprague-Dawley, rat, plasma, po, 3 mg/kg, 3 mg/kg by gavage, group G3, rat 11
Below, each entry is listed with its recorded AUC(0-t).
Quick reminder: number only, in ng·h/mL, skip the unit.

Answered examples (2):
N#CCNC(=O)c1ccc(-c2ccnc(Nc3ccc(N4CCOCC4)cc3)n2)cc1 [example 9, reference compound]	1750
[2H]C([2H])(C#N)NC(=O)c1ccc(-c2ccnc(Nc3ccc(N4C([2H])([2H])C([2H])([2H])OC([2H])([2H])C4([2H])[2H])cc3)n2)cc1	2190

// next item, AUC(0-t) requested
I'd like to know its AUC(0-t). The compound in question is [2H]C1([2H])OC([2H])([2H])C([2H])([2H])N(c2ccc(Nc3nccc(-c4ccc(C(=O)NCC#N)cc4)n3)cc2)C1([2H])[2H]
3160

* * *

Below, each entry is listed with its recorded Tmax.
# Assay name: Pharmacokinetic evaluation in rats
# Type: in vivo
# Recorded conditions: male, Sprague-Dawley, rat, plasma, po, 3 mg/kg, 3 mg/kg by gavage, group G3, rat 9
Quick reminder: number only, in h, skip the unit.

I'd like to know its Tmax. The compound in question is [2H]C([2H])(C#N)NC(=O)c1ccc(-c2ccnc(Nc3ccc(N4C([2H])([2H])C([2H])([2H])OC([2H])([2H])C4([2H])[2H])cc3)n2)cc1 [example 3]
4

I'd like to know its Tmax. The compound in question is N#CCNC(=O)c1ccc(-c2ccnc(Nc3ccc(N4CCOCC4)cc3)n2)cc1 [example 9, reference compound]
4

I'd like to know its Tmax. The compound in question is [2H]C1([2H])OC([2H])([2H])C([2H])([2H])N(c2ccc(Nc3nccc(-c4ccc(C(=O)NCC#N)cc4)n3)cc2)C1([2H])[2H] [example 1]
4
